Test system: Bel-7402
Test: Cytotoxicity against human Bel7402 cells after 48 hrs by MTT assay
Type: functional, cell-based
Conditions: Bel-7402, 48 h
measure.name: IC50 (µM)
Answer format: numeric, µM implied, no suffix.

Problem: I'd like to know its IC50. The compound in question is COc1cc(C(CC=C(C)C)SC(=O)c2ccc(C(F)(F)F)cc2)c(OC)c2c1/C(=N/O)C=C/C2=N\O (configuration not stated)
Result: 7.12

Problem: For the compound COc1ccc(C(=O)SC(CC=C(C)C)c2cc(OC)c3c(c2OC)/C(=N/O)C=C/C3=N\O)cc1 (configuration not stated) , what IC50 is on record?
Result: 1.09

Problem: Name the recorded IC50 for COc1cc(C(CC=C(C)C)SCC=C(C)C)c(OC)c2c1/C(=N/O)C=C/C2=N\O (configuration not stated) .
Result: 12.6

Problem: For the compound O=c1[nH]cc(F)c(=O)[nH]1 [FLUOROURACIL] , what IC50 is on record?
Result: 20.9

Problem: Tell me the measured IC50 of COc1ccc(C(=O)S[C@H](CC=C(C)C)c2cc(OC)c3c(c2OC)/C(=N/O)C=C/C3=N\O)cc1OC , please.
Result: 1.16

Problem: IC50 for COc1cc(C(CC=C(C)C)SC(=O)c2cccc(F)c2)c(OC)c2c1/C(=N/O)C=C/C2=N\O (configuration not stated) ?
Result: 8.9

Problem: Which value of IC50 has been reported for COc1cc(C(CC=C(C)C)SC(=O)c2ccccc2)c(OC)c2c1/C(=N/O)C=C/C2=N\O (configuration not stated) in the records?
Result: 1.2

Problem: Recorded IC50 of CCCCCCCCCCCCSC(CC=C(C)C)c1cc(OC)c2c(c1OC)/C(=N/O)C=C/C2=N\O (configuration not stated) , please.
Result: 34.3

====

Test system: MCF7
Assay: Cytotoxicity against human MCF7 cells after 48 hrs by MTT assay
Type: functional, cell-based
Conditions: MCF7, 48 h
measure.name: pIC50
Remember the convention: pIC50 equals -log10 of concentration in molar.

Worked examples follow.
CCCCCCCCSC(CC=C(C)C)c1cc(OC)c2c(c1OC)/C(=N/O)C=C/C2=N\O (centres undefined): 4.59
COc1cc(C(CC=C(C)C)SC(=O)c2ccc(Cl)cc2)c(OC)c2c1/C(=N/O)C=C/C2=N\O (centres undefined): 4.69
COc1cc(C(CC=C(C)C)SC/C=C(\C)CC/C=C(\C)CCC=C(C)C)c(OC)c2c1/C(=N/O)C=C/C2=N\O (centres undefined): 4.43
COc1cc(C(CC=C(C)C)SC(=O)c2ccccc2F)c(OC)c2c1/C(=N/O)C=C/C2=N\O (centres undefined): 4.64

Problem: Entry COc1cc(C(CC=C(C)C)SC(=O)c2cccc(Cl)c2)c(OC)c2c1/C(=N/O)C=C/C2=N\O (centres undefined) : reported pIC50 = ?
Result: 4.37

Problem: For the compound CCCCCCSC(CC=C(C)C)c1cc(OC)c2c(c1OC)/C(=N/O)C=C/C2=N\O (centres undefined) , what pIC50 is on record?
Result: 4.46

Problem: # query: pIC50 of entry COc1cc(C(CC=C(C)C)SCCC(C)C)c(OC)c2c1/C(=N/O)C=C/C2=N\O (centres undefined)
Result: 4.57

Problem: Given the compound COc1cc(C(CC=C(C)C)SC(=O)c2cccnc2)c(OC)c2c1/C(=N/O)C=C/C2=N\O (centres undefined) , what is its reported pIC50?
Result: 4.43

====

Item-by-item account of IC50
Test system: MCF7
Assay: Cytotoxicity against human MCF7 cells after 48 hrs by MTT assay
Assay type: functional, cell-based
Settings: MCF7, 48 h
Supply the numeric figure in µM, leaving out any unit text.

Examples from the recorded data:
COc1cc(C(CC=C(C)C)SC(=O)c2ccc(C(F)(F)F)cc2)c(OC)c2c1/C(=N/O)C=C/C2=N\O (stereo not given): 30.5
COc1cc(C(=O)S[C@@H](CC=C(C)C)c2cc(OC)c3c(c2OC)/C(=N/O)C=C/C3=N\O)cc(OC)c1OC: 11.8

Problem: Lab note: need IC50 for CCCCCCCSC(CC=C(C)C)c1cc(OC)c2c(c1OC)/C(=N/O)C=C/C2=N\O (stereo not given) on MCF7, anyone have it?
Result: 30.6

Problem: Enter reported IC50 observed with MCF7 for COc1cc(C(CC=C(C)C)SC(=O)CC(C)C)c(OC)c2c1/C(=N/O)C=C/C2=N\O (stereo not given)
Result: 16.3

Problem: API: value(readout=IC50, system=MCF7) for record COc1cc(C(CC=C(C)C)SC(=O)c2ccc(NC(=O)OC(C)(C)C)cc2)c(OC)c2c1/C(=N/O)C=C/C2=N\O (stereo not given)
Result: 32.4

====

Assay: Induction of NO release in phosphate buffer at pH 7.4 at 0.1 mM measured after 5 hrs in presence of N-acetylcysteine by Griess assay
Format: functional
measure.name: Activity (%)
A number alone suffices; assume %.

Please review the following examples before continuing.
COc1cc(C(=O)SC(CC=C(C)C)c2cc(OC)c3c(c2OC)/C(=N/O)C=C/C3=N\O)cc(OC)c1OC (centres undefined): 0.084
COc1cc(C(CC=C(C)C)SCCC(C)C)c(OC)c2c1/C(=N/O)C=C/C2=N\O (centres undefined): 0.029
COc1ccc(C(=O)SC(CC=C(C)C)c2cc(OC)c3c(c2OC)/C(=N/O)C=C/C3=N\O)cc1OC (centres undefined): 0.073

Now look at this one.
Problem: Consider the compound COc1ccc(C(=O)SC(CC=C(C)C)c2cc(OC)c3c(c2OC)/C(=N/O)C=C/C3=N\O)cc1 (centres undefined) and give its measured Activity.
Result: 0.059

====

Assay: Induction of NO release in phosphate buffer at pH 7.4 at 0.1 mM measured after 2 hrs in presence of N-acetylcysteine by Griess assay
Type: functional
Collected Activity values appear next to each entry.
Report the figure in % without appending any unit label.

Example entries begin here.
COc1ccc(C(=O)SC(CC=C(C)C)c2cc(OC)c3c(c2OC)/C(=N/O)C=C/C3=N\O)cc1 (centres undefined): 0.045
COc1ccc(C(=O)SC(CC=C(C)C)c2cc(OC)c3c(c2OC)/C(=N/O)C=C/C3=N\O)cc1OC (centres undefined): 0.05
COc1cc(C(CC=C(C)C)SCCC(C)C)c(OC)c2c1/C(=N/O)C=C/C2=N\O (centres undefined): 0.027

Here's the next entry for you.
Problem: Would you mind telling me what Activity value was observed for COc1cc(C(=O)SC(CC=C(C)C)c2cc(OC)c3c(c2OC)/C(=N/O)C=C/C3=N\O)cc(OC)c1OC (centres undefined) ?
Result: 0.063

====

System: Bel-7402
Assay: Cytotoxicity against human Bel7402 cells after 48 hrs by MTT assay
Format: functional, cell-based
Details: Bel-7402, 48 h
measure.name: pIC50
# pIC50: negative log10 of molar concentration; output just the value

COc1cc([C@@H](CC=C(C)C)SCCC(C)C)c(OC)c2c1/C(=N/O)C=C/C2=N\O: 5.05
COc1cc(C(=O)SC(CC=C(C)C)c2cc(OC)c3c(c2OC)/C(=N/O)C=C/C3=N\O)cc(OC)c1OC (stereo not given): 6.35

Problem: # input molecule: COc1cc([C@H](CC=C(C)C)SC(=O)c2ccccc2)c(OC)c2c1/C(=N/O)C=C/C2=N\O ; wanted: its pIC50
Result: 5.83

Problem: pIC50 for COc1cc(C(CC=C(C)C)SC(=O)c2ccc(C)cc2)c(OC)c2c1/C(=N/O)C=C/C2=N\O (stereo not given) ?
Result: 6.14

Problem: Dear colleague, I am looking for the recorded pIC50 of the following molecule: COc1cc(C(CC=C(C)C)SC(C)=O)c(OC)c2c1/C(=N/O)C=C/C2=N\O (stereo not given)
Result: 5.44

Problem: Item under review: COc1cc(C(CC=C(C)C)SC(=O)c2ccc(NC(=O)OC(C)(C)C)cc2)c(OC)c2c1/C(=N/O)C=C/C2=N\O (stereo not given) . Reported pIC50?
Result: 5.04

Problem: Quick one: pIC50 of COc1cc(C(CC=C(C)C)SC/C=C(\C)CC/C=C(\C)CCC=C(C)C)c(OC)c2c1/C(=N/O)C=C/C2=N\O (stereo not given) ?
Result: 4.83

Problem: State the recorded pIC50 for this entry: COc1ccccc1C(=O)SC(CC=C(C)C)c1cc(OC)c2c(c1OC)/C(=N/O)C=C/C2=N\O (stereo not given)
Result: 5.97

Problem: Which measured pIC50 value corresponds to CC(C)=CC[C@@H](O)C1=CC(=O)c2c(O)ccc(O)c2C1=O ?
Result: 5.91

Problem: Form field: reported pIC50 of CCCCSC(CC=C(C)C)c1cc(OC)c2c(c1OC)/C(=N/O)C=C/C2=N\O (stereo not given)
Result: 4.90
